Test system: Escherichia coli ATCC 2592
resultType: MIC

structureNotation	resultType	readoutValue
CC(C)C[C@H](NC(=O)[C@H](CCCCN)NC(=O)[C@H](Cc1ccccc1)NC(=O)[C@H](CC(C)C)NC(=O)[C@@H](NC(=O)[C@H](CCCCN)NC(=O)[C@@H](N)CCCCN)C(C)C)C(=O)N[C@@H](CCCCN)C(=O)N[C@@H](Cc1ccccc1)C(=O)N[C@@H](CCCCN)C(N)=O	MIC	2.44 µM
CC(C)[C@H](NC(=O)[C@H](CCCCN)NC(=O)[C@H](Cc1ccccc1)NC(=O)[C@@H](NC(=O)[C@@H](NC(=O)[C@H](CCCCN)NC(=O)[C@@H](N)CCCCN)C(C)C)C(C)C)C(=O)N[C@@H](CCCCN)C(=O)N[C@@H](Cc1ccccc1)C(=O)N[C@@H](Cc1cnc[nH]1)C(=O)O	MIC	17.5 µM
CC(C)[C@H](NC(=O)[C@H](CS)NC(=O)[C@@H](NC(=O)[C@H](CCCN=C(N)N)NC(=O)[C@H](CCCCN)NC(=O)CNC(=O)[C@H](CC(N)=O)NC(=O)[C@H](CS)NC(=O)[C@H](Cc1ccc(O)cc1)NC(=O)CNC(=O)CNC(=O)[C@H](CO)NC(=O)[C@@H](N)CCCN=C(N)N)C(C)C)C(=O)N[C@@H](CS)C(=O)N[C@@H](CCCN=C(N)N)C(=O)O	MIC	30.2 µM
C[C@H](NC(=O)[C@H](Cc1ccccc1)NC(=O)[C@@H](N)CCCCN)C(=O)N[C@@H](CCCCN)C(=O)O	MIC	≥ 507 µM
CC(C)C[C@H](NC(=O)[C@H](CS)NC(=O)[C@H](CCCCN)NC(=O)[C@H](C)NC(=O)[C@H](C)NC(=O)[C@H](CS)NC(=O)[C@H](C)NC(=O)[C@H](C)NC(=O)[C@@H](N)CC(=O)O)C(=O)N[C@@H](Cc1c[nH]c2ccccc12)C(=O)N[C@@H](CCCN=C(N)N)C(N)=O	MIC	≥ 166 µM
CC(C)C[C@H](NC(=O)[C@H](CCCCN)NC(=O)[C@H](Cc1ccccc1)NC(=O)[C@H](CC(C)C)NC(=O)[C@H](CC(C)C)NC(=O)[C@H](CCCCN)NC(=O)[C@@H](N)CCCCN)C(=O)N[C@@H](CCCCN)C(=O)N[C@@H](Cc1ccccc1)C(=O)N[C@@H](CCCCN)C(N)=O	MIC	2.41 µM
